- SYSTEM UNDER TEST: T1, full-length human Nectin4 with C-terminal flag and Myc tags on CHO cells (human, UniProt Q96NY8 32-510)
- T1 construct: whole, on cells; also called Nectin4/CHO; CHO/Nectin4; not shown: C-terminal flag and Myc tags of pCMV6-Entry vector
- T1 sequence (looked up): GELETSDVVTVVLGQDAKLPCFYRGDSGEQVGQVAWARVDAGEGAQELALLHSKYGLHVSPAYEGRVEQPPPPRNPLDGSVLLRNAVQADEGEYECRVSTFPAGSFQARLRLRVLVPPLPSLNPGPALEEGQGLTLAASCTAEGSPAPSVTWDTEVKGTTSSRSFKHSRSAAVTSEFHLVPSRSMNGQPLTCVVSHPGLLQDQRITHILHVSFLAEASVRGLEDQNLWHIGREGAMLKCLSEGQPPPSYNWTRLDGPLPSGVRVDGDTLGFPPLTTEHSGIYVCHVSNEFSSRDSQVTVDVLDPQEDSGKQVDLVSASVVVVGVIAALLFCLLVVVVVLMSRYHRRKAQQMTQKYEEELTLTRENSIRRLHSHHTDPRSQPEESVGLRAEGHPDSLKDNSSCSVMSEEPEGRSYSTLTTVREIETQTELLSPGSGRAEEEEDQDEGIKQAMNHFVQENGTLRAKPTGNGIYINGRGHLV
- ASSAY TEXT: flow cytometry, scFv on Nectin4/CHO cells
Friendly reminder: EC50 below 300 pM is yes, at or above is no.

BINDER	CATEGORY
2021EP030-B10 scFv (scFv, V domains shown) VH: QVQLVESGGDLVNPGRSLRLACTGAGFTFGDYAVSWFRQAPGKGLEWVGFIESKPYGETREYAASVRGRFTISRDDSKGIAYLQMNGLKTEDTGVYYCSSVVAWVAYWGQGTLVTVSS VL: AIQLTQSPSSLSASIGDRVTITCRASQSVTTYLNWYHQKPGKAPTFLIYGTSALQSGVPSRFSGSGSGTDFTLTISSLQPEDFGIYYCQQSYSLPPTFGGGTNVQIR	no

Exercise: Find out if reported EC50 for 2021EP032-D10 scFv (scFv, V domains shown) VH: EVQLVESGAEVKKPGSSVKVSCKASGGTFSSYAISWVRQAPGQGLEWMGGIIPIFGTANYAQKFQGRVAITADESTSTAYMELSSLRSEDTAVYYCARDLAIVYGSGSYYNHHPRIDYYYYGMDVWGQGTTVTVSS VL: QSVLTQPRSVSGSPGQSVTISCAGTSSDIGAYNYVSWYQQHPGKAPTLMINDVSKRPSGVPDRFSGSKSGNTASLTISGLQAEDEGDYYCFSYAGSYTLVFGGGTQLTVL is less than 300 pM
Solution: yes

Exercise: Also check 2021EP030-C11 scFv (scFv, V domains shown) VH: QMQLVQSKPEVKKPGTSVKVSCKASGFTFTSSAVQWVRQARGQRLEWIGWIVVGSGNTNYAQKFQERVTITRDMSTSTAYMELSSLRSEDTAVYYCAADGDYDIEGALDYWGQGTLVTVSS VL: EIVLTQSPAILSLSPGERATLSCRASQSVSSYLAWYQQKPGQAPRLLIYDASNRATGIPARFSGSGSGTDFTLTISSLEPEDFAVYYCQQRSNWITFGGGTKVEIK
Solution: no

Exercise: Also check 2021EP032-E06 scFv (scFv, V domains shown) VH: QVQLVESGAEVKKPGASVKVSCKASGYTFTGYYMHWVRQAPGQGLEWMGRINPNSGGTNYAQKFQGRFTISRDNSKTTLFLQMNSLRAEDTAVYYCAKADYQWVGAIFRLNAFDIWGQGTMVTVSS VL: VIWMTQSPSSLSASVGDRVTITCRASQGISNYLAWYQQKPGKVPKLLIYAASTLQSGVPSRFSGSGSGTDFTLTISSLQPEDVATYYCQKYNSAPYTFGQGTKLEIK
Solution: yes
